system: benzodiazepine receptor; experiment: Inverse agonism at the benzodiazepine receptor, in the hippocampal slice tests; format: cell-based; settings: in these tests
Value Kind: inverse agonist character

> print(dat)
                                   compound            measurement
1  CCc1c(C(=O)OC)ncc2[nH]c3cc(OC)c(OC)cc3c12  full inverse agonists
2  COC(=O)c1cc2c(cn1)[nH]c1ccccc12 [methyl β-carboline-3-carboxylate]  full inverse agonists
3  CCOC(=O)c1cc2c(cn1)[nH]c1ccccc12 [ethyl β-carboline-3-carboxylate]  full inverse agonists

Data provenance is patent US5236942A.
